Target: HLA-B*15:42
Experiment: IEDB peptide-MHC binding, purified MHC/competitive/fluorescence; filed as Kd, often an IC50 or EC50 that approximates it; bounds were set here for any values at or beyond the usual limits of such assays
Conditions: source organism: Yersinia pestis Nepal516

monomerSequence: MMMSTAVAF
targetOrTestSystem: HLA-B*15:42
Kd: ≥ 5 µM

---

Biological target: HLA-A*31:01
Experiment: IEDB peptide-MHC binding, purified MHC/direct/fluorescence; filed as Kd, often an IC50 or EC50 that approximates it; bounds were set here for any values at or beyond the usual limits of such assays
Conditions: source organism: Serratia marcescens

monomerSequence: LIPDGDGEV
Kd: ≥ 20 µM
